# System Name: LIM domain kinase 1 (Homo sapiens)
# Experimental Context: at 10 µM
Binarize residual activity at 40%; below is TRUE, at or above is FALSE.

Prompt line: Please determine if Nc1ncnc2[nH]nc(Nc3ccc(F)cc3)c12 is below 40% in terms of residual activity.
Response line: FALSE

Prompt line: Cool, now CCCC(=O)Oc1ccc2[nH]c(C(=O)c3cc4ccccc4[nH]3)cc2c1
Response line: FALSE

Prompt line: Another: N#Cc1c(NC(=O)c2cccc3ccccc23)sc2c1CCCC2
Response line: FALSE

Prompt line: Now give it for Nc1ncnc2c1cnn2-c1ccccc1 too.
Response line: FALSE

Prompt line: // query: CCN(CC)CCNC(=O)c1c(C)[nH]c(/C=C2\C(=O)Nc3ccc(Cl)cc32)c1C
Response line: FALSE

Prompt line: Now the compound CC(C)(C)n1nc(Cc2cccc3ccccc23)c2c(N)ncnc21
Response line: FALSE

Prompt line: Proceed to CC(C)N(CCC(=O)c1ccc2ccccc2c1)Cc1ccccc1
Response line: FALSE

Prompt line: How about this compound: O=S(=O)(NCCNC/C=C/c1ccc(Br)cc1)c1cccc2cnccc12
Response line: TRUE

Prompt line: Again, but for CN([C@@H](Cc1ccc(OS(=O)(=O)c2cccc3cnccc23)cc1)C(=O)N1CCN(c2ccccc2)CC1)S(=O)(=O)c1cccc2cnccc12
Response line: FALSE

Prompt line: Proceed to Nc1nccc(-c2c(-c3ccc(F)cc3)ncn2C2CCNCC2)n1
Response line: TRUE

Prompt line: Queued: CC(C)[C@H](CO)Nc1nc(Nc2cc(N)cc(Cl)c2)c2ncn(C(C)C)c2n1
Response line: FALSE

Prompt line: # repeat for COc1cc2c(cc1OC)-c1n[nH]c(Nc3cccc(F)c3)c1C2
Response line: TRUE

Prompt line: Next entry: O=C1NC(=O)C(c2c[nH]c3ccccc23)=C1c1c[nH]c2ccccc12
Response line: FALSE

Prompt line: Please do the same for COc1cc2nccc(Oc3ccc(NC(=S)NC(=O)c4ccccc4C)cc3)c2cc1OC as well.
Response line: TRUE

Prompt line: Then what about the compound COc1ccc2c(c1)c(C1=C(c3c[nH]c4ccccc34)C(=O)NC1=O)cn2CCCN(C)C ?
Response line: FALSE

Prompt line: Next: Cn1c2ccccc2c2c3c(c4c5ccccc5n(CCC#N)c4c21)CNC3=O
Response line: TRUE

Prompt line: Lookup O=C1Cc2c([nH]c3ccc(Br)cc23)-c2ccccc2N1
Response line: FALSE

Prompt line: Thanks! And NC(=O)Nc1sc(-c2ccc(F)cc2)cc1C(N)=O ?
Response line: TRUE

Prompt line: Moving on to CCCCc1c(-c2ccc(O)cc2)[nH]c2nccnc12
Response line: FALSE

Prompt line: Item: Nc1n[nH]c2nc3ccccc3nc12
Response line: FALSE

Prompt line: Could you do the same for O=C1Nc2ccc(Cl)cc2/C1=C/c1cc(Cl)c(O)c(Cl)c1 , please?
Response line: FALSE

Prompt line: Continue with CN(C)S(=O)(=O)c1ccc2c(c1)/C(=C/c1cc3c([nH]1)CCCC3)C(=O)N2
Response line: FALSE

* * *

# System Name: Ephrin type-B receptor 1 (Homo sapiens) (UniProt P54762)
# Sequence (whole entry): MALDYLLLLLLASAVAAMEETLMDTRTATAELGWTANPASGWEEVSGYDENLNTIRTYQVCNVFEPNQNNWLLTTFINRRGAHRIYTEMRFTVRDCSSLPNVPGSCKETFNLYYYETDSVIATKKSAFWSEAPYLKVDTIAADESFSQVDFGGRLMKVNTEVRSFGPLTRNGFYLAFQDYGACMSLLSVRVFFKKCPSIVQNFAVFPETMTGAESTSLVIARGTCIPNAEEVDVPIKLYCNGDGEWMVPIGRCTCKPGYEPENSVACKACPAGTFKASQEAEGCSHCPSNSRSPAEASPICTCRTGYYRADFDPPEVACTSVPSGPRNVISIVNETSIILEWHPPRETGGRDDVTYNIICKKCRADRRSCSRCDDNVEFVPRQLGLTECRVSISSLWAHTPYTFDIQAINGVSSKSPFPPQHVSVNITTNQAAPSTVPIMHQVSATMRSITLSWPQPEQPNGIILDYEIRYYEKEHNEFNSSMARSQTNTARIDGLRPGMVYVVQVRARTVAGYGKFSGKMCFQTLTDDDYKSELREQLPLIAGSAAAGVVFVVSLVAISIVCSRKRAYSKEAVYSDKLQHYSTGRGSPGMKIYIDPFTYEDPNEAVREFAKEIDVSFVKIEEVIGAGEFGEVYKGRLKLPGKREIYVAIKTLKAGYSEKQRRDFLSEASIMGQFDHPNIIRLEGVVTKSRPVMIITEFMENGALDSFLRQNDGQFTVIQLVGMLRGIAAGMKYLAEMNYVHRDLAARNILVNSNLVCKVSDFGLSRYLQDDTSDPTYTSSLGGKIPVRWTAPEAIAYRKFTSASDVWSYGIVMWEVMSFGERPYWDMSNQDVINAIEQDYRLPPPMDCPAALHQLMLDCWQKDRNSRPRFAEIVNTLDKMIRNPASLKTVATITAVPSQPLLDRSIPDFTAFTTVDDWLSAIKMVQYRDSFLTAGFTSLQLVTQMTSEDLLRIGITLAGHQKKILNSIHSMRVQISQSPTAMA
# Experimental Context: at 1 µM
Readout Type: residual activity (%)
Dear colleague, please return just the value in %, with no unit written.

Prompt line: Requested read-out: residual activity. Entry: CC(C)c1nn(-c2c(Cl)cccc2Cl)c2nc(Cc3ccc(OCCO)cc3)[nH]c(=O)c12
Response line: 90

Prompt line: Likewise for COc1cc2ncnc(Nc3cccc(Cl)c3)c2cc1OC ?
Response line: 84

Prompt line: What do you have for COc1ccc(CNC(=O)Nc2ncc([N+](=O)[O-])s2)cc1 ?
Response line: 111

Prompt line: Same read-out for CCCC(=O)Oc1ccc2[nH]c(C(=O)c3cc4ccccc4[nH]3)cc2c1 ?
Response line: 82

Prompt line: Record: O=C(O)/C=C/c1cc(Br)c(Br)c(Br)c1Br
Response line: 101

Prompt line: Now this one: O=C1NC(=O)c2c1c1c3ccccc3[nH]c1n1cncc21
Response line: 90

Prompt line: And then O=C(Nc1nc2ccccc2n1CCN1CCOCC1)c1cccc([N+](=O)[O-])c1 , what is it?
Response line: 100

Prompt line: What about this compound? O=c1cc(N2CCNCC2)oc2c(-c3ccccc3)cccc12
Response line: 100

Prompt line: Again, but for Oc1cccc(-c2nc(N3CCOCC3)c3oc4ncccc4c3n2)c1
Response line: 95

Prompt line: Continue with COc1cc2nccc(Oc3ccc(NC(=S)NC(=O)c4ccccc4C)cc3)c2cc1OC
Response line: 86

Prompt line: Same question for O=c1cc(N2CCOCC2)oc2c1ccc1ccccc12 please.
Response line: 95
